- testTarget: T1, recombinant human domain 1-3His6 of the cation-independent mannose-6-phosphate receptor (human, UniProt P11717 41-467)
- T1 construct: Biotinylated (NHS-PEG4-biotin) for BLI; Glycosylated; also called hDom1-3His6; hCI-M6PRD1-D3
- experimentalDetails: BLI exp 1, dissoc pH 7.4
reportedProperty: kon (M⁻¹ s⁻¹)

I. anti-CI-M6PR VHH4 (VHH, His6-tagged; made in Pichia pastoris) VHH: QVQLQESGGGLVQAGGSLRLSCAASGRTFSNYVMGWFRQAPGKEREFVGSISQGGKMTYYPDSVKGRFTISRDNAKNTMYLQMDGLKPEDTAVYYCAVSRGYPMVRVSEVDYWGQGTQVTVSS
II. anti-CI-M6PR VHH11 (VHH, His6-tagged; made in Pichia pastoris) VHH: QVQLQESGGGLVQAGDSLKLSCTASGPTFSEITGGWFRQVPGKEREFVASISSTGITTYYTDSVKGRFTVSRDNAKNTMYLQMNSLKPEDTGVYYCAARSTSRSIAITVGYDYWGQGTQVTVSS
III. anti-CI-M6PR VHH7 (VHH, His6-tagged (Pichia pastoris)) VHH: QVQLQESGGGLVQPGGSLRLSCAASGIIFSDNRMDWYRQAPGKQREWVATLASYGWKTYADSVKGRFTISRDNTKNTVYLRMNSLKPEDTAVYYCKASSPVLNDIWGQGTQVTVSS
Order them by kon, ascending: the binders above. List the labels, following the order given in the request.
II, I, III
(II: 76700 M⁻¹ s⁻¹, I: 571000 M⁻¹ s⁻¹, III: 924000 M⁻¹ s⁻¹)
